molecular target: SARS-CoV-2 nsp3-mac1 (Severe acute respiratory syndrome coronavirus 2, UniProt P0DTD1); experiment: biochemical; settings: Figure 4A, racemic mixture; read-out: HTRF IC50
pIC50: −log10 of the molar value.

>  <Molecule>
FC(F)(F)C(Nc1ncnc2[nH]ccc12)c1ccc2c(c1)OCCO2 (stereo not shown)

>  <pIC50>
4.72

$$$$

====

test system: HeLa-ACE2 cells; details: protocol HeLa-ACE2 cytotoxicity
Listed molecules paired with reported cc10

>  <Molecule>
CC(C)[C@@H](Nc1ncnc2[nH]c(C(=O)N[C@H]3CCN(C)C3)cc12)c1ccc2c(c1)S(=O)(=O)CCC2 (single isomer, unassigned)

>  <System Tested>
HeLa-ACE2 cells

>  <cc10>
> 20.0 µM

$$$$
>  <Molecule>
CCNC(=O)c1cc2c(NC(c3ccc4c(c3)S(=O)(=O)CCC4)C(C)C)ncnc2[nH]1 (stereo not drawn)

>  <System Tested>
HeLa-ACE2 cells

>  <cc10>
> 20.0 µM

$$$$
>  <Molecule>
CC(C)[C@@H](Nc1ncnc2[nH]c(-c3cnn(C)c3)cc12)c1ccc2c(c1)S(=O)(=O)CCC2 (single isomer, unassigned)

>  <System Tested>
HeLa-ACE2 cells

>  <cc10>
> 20.0 µM

$$$$
>  <Molecule>
CC(C)[C@@H](Nc1ncnc2[nH]c(-c3cnn(CC(=O)N(C)C)c3)cc12)c1ccc2c(c1)OCCO2

>  <System Tested>
HeLa-ACE2 cells

>  <cc10>
> 20.0 µM

$$$$
>  <Molecule>
CNC(=O)c1c[nH]c2ncnc(N[C@H](c3ccc4c(c3)S(=O)(=O)CCC4)C(C)C)c12 (single isomer, unassigned)

>  <System Tested>
HeLa-ACE2 cells

>  <cc10>
> 20.0 µM

$$$$
>  <Molecule>
CC(C)(C)[C@@H](Nc1ncnc2[nH]c(-c3cnn(CC(N)=O)c3)cc12)c1ccc2c(n1)OCCO2

>  <System Tested>
HeLa-ACE2 cells

>  <cc10>
> 20.0 µM

$$$$
>  <Molecule>
CC(C)C(Nc1ncnc2[nH]c(C(=O)NC3CCN(C)C3)cc12)c1ccc2c(c1)S(=O)(=O)CCC2 (stereo not drawn)

>  <System Tested>
HeLa-ACE2 cells

>  <cc10>
> 20.0 µM

$$$$
>  <Molecule>
CC(C)C(Nc1ncnc2[nH]ccc12)c1ccc2c(c1)NC(=O)CO2 (stereo not drawn)

>  <System Tested>
HeLa-ACE2 cells

>  <cc10>
> 50.0 µM

$$$$
>  <Molecule>
CNC(=O)c1cc2c(N[C@@H](c3ccc4c(c3)OCCO4)C(C)C)ncnc2[nH]1

>  <System Tested>
HeLa-ACE2 cells

>  <cc10>
> 50.0 µM

$$$$
>  <Molecule>
CC(C)C(Nc1ncnc2[nH]ccc12)c1ccc2c(c1)S(=O)(=O)CCC2 (stereo not drawn)

>  <System Tested>
HeLa-ACE2 cells

>  <cc10>
> 50.0 µM

$$$$
>  <Molecule>
CNC(=O)Cn1cc(-c2cc3c(N[C@H](c4ccc5c(c4)S(=O)(=O)CCC5)C(C)C)ncnc3[nH]2)cn1 (single isomer, unassigned)

>  <System Tested>
HeLa-ACE2 cells

>  <cc10>
> 20.0 µM

$$$$
>  <Molecule>
CC(C)[C@@H](Nc1ncnc2[nH]c(-c3cnn(C)c3C#N)cc12)c1ccc2c(c1)OCCO2 (racemic)

>  <System Tested>
HeLa-ACE2 cells

>  <cc10>
> 50.0 µM

$$$$

====

assay: LogD; conditions: pH 7.4; In vitro LogD

>  <Molecule>
Cn1ncc(-c2cc3c(N[C@@H](c4ccc5c(c4)OCCO5)C(C)(C)C)ncnc3[nH]2)c1C#N (racemic)

>  <logd>
2.9

$$$$
>  <Molecule>
CC(C)[C@H](Nc1ncnc2[nH]cc(C(=O)NC3CC3)c12)c1ccc2c(c1)S(=O)(=O)CCC2 (single isomer, unassigned) [ASAP-0011247]

>  <logd>
3.0

$$$$
>  <Molecule>
CC(C)[C@@H](Nc1ncnc2[nH]ccc12)c1ccc2c(c1)S(=O)(=O)CCC2 (single isomer, unassigned)

>  <logd>
2.5

$$$$
>  <Molecule>
CNC(=O)c1cc2c(N[C@@H](c3ccc4c(c3)OCCO4)C(C)C)ncnc2[nH]1

>  <logd>
2.76

$$$$
>  <Molecule>
CCNC(=O)c1cc2c(N[C@H](c3ccc4c(c3)S(=O)(=O)CCC4)C(C)C)ncnc2[nH]1 (racemic) [ASAP-0008711]

>  <logd>
2.8

$$$$
>  <Molecule>
COc1ccc2c(c1)CCN(c1ncnc3[nH]ccc13)[C@H]2C(C)C (racemic)

>  <logd>
4.33

$$$$
>  <Molecule>
CCNC(=O)c1cc2c(N[C@H](c3ccc4c(c3)OCCO4)C(C)C)ncnc2[nH]1 [ASAP-0013824]

>  <logd>
3.6

$$$$
>  <Molecule>
CC(C)(C)[C@H](Nc1ncnc2[nH]c(-c3cnn(CC(N)=O)c3)cc12)c1ccc2c(c1)OCCO2 (single isomer, unassigned) [ASAP-0012330]

>  <logd>
3.0

$$$$
>  <Molecule>
CC(C)[C@@H](Nc1ncnc2[nH]c(-c3cnn(C)c3)cc12)c1ccc2c(c1)S(=O)(=O)CCC2 (single isomer, unassigned) [ASAP-0012329]

>  <logd>
3.2

$$$$
>  <Molecule>
CNC(=O)c1c[nH]c2ncnc(N[C@@H](c3ccc4c(c3)S(=O)(=O)CCC4)C(C)C)c12

>  <logd>
2.6

$$$$
>  <Molecule>
CNC(=O)c1c[nH]c2ncnc(N[C@H](c3ccc4c(c3)NC(=O)CO4)C(C)C)c12 (racemic)

>  <logd>
3.2

$$$$
>  <Molecule>
CNCc1cc(-c2cc3c(N[C@H](c4ccc5c(c4)S(=O)(=O)CCC5)C(C)C)ncnc3[nH]2)co1 (single isomer, unassigned)

>  <logd>
2.1

$$$$
>  <Molecule>
CCNC(=O)c1cc2c(N[C@H](c3ccc4c(c3)OCCO4)C(C)C)ncnc2[nH]1 (single isomer, unassigned) [ASAP-0013827]

>  <logd>
3.6

$$$$
>  <Molecule>
CC(C)[C@@H](Nc1ncnc2[nH]c(-c3cncc(S(C)(=O)=O)c3)cc12)c1ccc2c(c1)S(=O)(=O)CCC2

>  <logd>
3.1

$$$$

====

biological target: SARS-CoV-2 nsp3-mac1 (Severe acute respiratory syndrome coronavirus 2); experiment: biochemical; assay type: biochemical; settings: SARS-CoV-2 nsp3 macrodomain TR-FRET single point; concentration 49.75 uM; n=2
Parameter: perc_inhibition_mean. Scope: all listed entries.
Measured Metric: perc_inhibition_mean (%)

>  <Substance Smiles>
Cc1n[nH]c(C)c1C(=O)N1CCC(c2ccn3ncc(C(=O)N4CCCCC4)c3c2)CC1

>  <System Tested>
SARS-CoV-2 nsp3-mac1 (Severe acute respiratory syndrome coronavirus 2)

>  <Val>
10.806

$$$$
>  <Substance Smiles>
O=C(CCN(Cc1cccc(Cl)c1)C(=O)c1ccc(F)cn1)N1CCNCC1

>  <System Tested>
SARS-CoV-2 nsp3-mac1 (Severe acute respiratory syndrome coronavirus 2)

>  <Val>
6.758

$$$$
>  <Substance Smiles>
O=C(Nc1ccccc1)Nc1ccc(C(=O)N[C@H]2CC[C@H](CO)CC2)cc1

>  <System Tested>
SARS-CoV-2 nsp3-mac1 (Severe acute respiratory syndrome coronavirus 2)

>  <Val>
-0.639

$$$$
>  <Substance Smiles>
O=C(Nc1ccccc1)Nc1ccc(C(=O)N2CCc3ccncc32)cc1

>  <System Tested>
SARS-CoV-2 nsp3-mac1 (Severe acute respiratory syndrome coronavirus 2)

>  <Val>
-4.305

$$$$
>  <Substance Smiles>
O=C(CCN(Cc1cccc(Cl)c1)C(=O)c1c[nH]c(=O)cn1)N1CCNCC1

>  <System Tested>
SARS-CoV-2 nsp3-mac1 (Severe acute respiratory syndrome coronavirus 2)

>  <Val>
-2.705

$$$$
>  <Substance Smiles>
FC(F)(F)c1nnc2n1CCN(c1ncnc3[nH]ccc13)C2

>  <System Tested>
SARS-CoV-2 nsp3-mac1 (Severe acute respiratory syndrome coronavirus 2)

>  <Val>
-1.969

$$$$
>  <Substance Smiles>
COc1cccc(NC(=O)c2ccc(NC(=O)Nc3ccccc3)cc2)n1

>  <System Tested>
SARS-CoV-2 nsp3-mac1 (Severe acute respiratory syndrome coronavirus 2)

>  <Val>
4.647

$$$$
>  <Substance Smiles>
C[C@@H]1CN(C(=O)c2ccc(NC(=O)Nc3ccccc3)cc2)CC(=O)N1

>  <System Tested>
SARS-CoV-2 nsp3-mac1 (Severe acute respiratory syndrome coronavirus 2)

>  <Val>
-0.707

$$$$
>  <Substance Smiles>
CN(Cc1cn(C)nn1)C(=O)c1ccc(NC(=O)Nc2ccccc2)cc1

>  <System Tested>
SARS-CoV-2 nsp3-mac1 (Severe acute respiratory syndrome coronavirus 2)

>  <Val>
0.883

$$$$
>  <Substance Smiles>
O=C(CCN(Cc1cccc(Cl)c1)C(=O)[C@@H]1CNCC12CC2)N1CCNCC1

>  <System Tested>
SARS-CoV-2 nsp3-mac1 (Severe acute respiratory syndrome coronavirus 2)

>  <Val>
4.205

$$$$
>  <Substance Smiles>
O=C(Nc1ccccc1)Nc1ccc(C(=O)Nc2nnc(C(F)(F)F)[nH]2)cc1

>  <System Tested>
SARS-CoV-2 nsp3-mac1 (Severe acute respiratory syndrome coronavirus 2)

>  <Val>
-3.198

$$$$
>  <Substance Smiles>
C[C@@H]1[C@H](O)CCCN1C(=O)c1ccc(NC(=O)Nc2ccccc2)cc1

>  <System Tested>
SARS-CoV-2 nsp3-mac1 (Severe acute respiratory syndrome coronavirus 2)

>  <Val>
-2.963

$$$$
>  <Substance Smiles>
O=C1NC[C@@H](C(=O)N(CCC(=O)N2CCNCC2)Cc2cccc(Cl)c2)O1

>  <System Tested>
SARS-CoV-2 nsp3-mac1 (Severe acute respiratory syndrome coronavirus 2)

>  <Val>
0.125

$$$$
>  <Substance Smiles>
O=C(Nc1ccccc1)Nc1ccc(C(=O)N2CCOCC23CCC3)cc1

>  <System Tested>
SARS-CoV-2 nsp3-mac1 (Severe acute respiratory syndrome coronavirus 2)

>  <Val>
-5.176

$$$$
>  <Substance Smiles>
O=C(O)c1sccc1C(=O)N1CCC(c2ccn3ncc(C(=O)N4CCCCC4)c3c2)CC1

>  <System Tested>
SARS-CoV-2 nsp3-mac1 (Severe acute respiratory syndrome coronavirus 2)

>  <Val>
55.49

$$$$
>  <Substance Smiles>
O=C(CCN(Cc1cccc(Cl)c1)C(=O)c1ccccc1F)N1CCNCC1

>  <System Tested>
SARS-CoV-2 nsp3-mac1 (Severe acute respiratory syndrome coronavirus 2)

>  <Val>
-0.625

$$$$
>  <Substance Smiles>
Cc1ncc(NCc2csc(-c3ccccn3)n2)cn1

>  <System Tested>
SARS-CoV-2 nsp3-mac1 (Severe acute respiratory syndrome coronavirus 2)

>  <Val>
-5.23

$$$$
>  <Substance Smiles>
O=C(Nc1ccccc1)Nc1ccc(C(=O)N2CCn3nccc3C2)cc1

>  <System Tested>
SARS-CoV-2 nsp3-mac1 (Severe acute respiratory syndrome coronavirus 2)

>  <Val>
-3.111

$$$$
>  <Substance Smiles>
O=C(N[C@@H]1CCCNC1=O)c1cnn2ccc(C3CCN(C(=O)c4ccccc4)CC3)cc12

>  <System Tested>
SARS-CoV-2 nsp3-mac1 (Severe acute respiratory syndrome coronavirus 2)

>  <Val>
-3.161

$$$$
>  <Substance Smiles>
CC1(C)CNCCN1C(=O)c1ccc(NC(=O)Nc2ccccc2)cc1

>  <System Tested>
SARS-CoV-2 nsp3-mac1 (Severe acute respiratory syndrome coronavirus 2)

>  <Val>
2.242

$$$$
>  <Substance Smiles>
Cn1cc(NC(=O)c2ccc(NC(=O)Nc3ccccc3)cc2)c(C#N)n1

>  <System Tested>
SARS-CoV-2 nsp3-mac1 (Severe acute respiratory syndrome coronavirus 2)

>  <Val>
2.492

$$$$
>  <Substance Smiles>
Cn1cc(Br)c(CNC(=O)c2ccc(NC(=O)Nc3ccccc3)cc2)n1

>  <System Tested>
SARS-CoV-2 nsp3-mac1 (Severe acute respiratory syndrome coronavirus 2)

>  <Val>
4.308

$$$$
>  <Substance Smiles>
COC(=O)[C@]1(F)CCN(C(=O)c2ccc(NC(=O)Nc3ccccc3)cc2)C1

>  <System Tested>
SARS-CoV-2 nsp3-mac1 (Severe acute respiratory syndrome coronavirus 2)

>  <Val>
-0.893

$$$$
>  <Substance Smiles>
O=C(NC1CCC(F)(F)CC1)c1ncnc2[nH]ccc12

>  <System Tested>
SARS-CoV-2 nsp3-mac1 (Severe acute respiratory syndrome coronavirus 2)

>  <Val>
-3.47

$$$$
>  <Substance Smiles>
Cn1cnc(C(=O)N(CCC(=O)N2CCNCC2)Cc2cccc(Cl)c2)n1

>  <System Tested>
SARS-CoV-2 nsp3-mac1 (Severe acute respiratory syndrome coronavirus 2)

>  <Val>
-1.441

$$$$
>  <Substance Smiles>
C[C@H](NC(=O)c1cnn2ccc(C3CCN(C(=O)c4ccccc4)CC3)cc12)c1cccnc1

>  <System Tested>
SARS-CoV-2 nsp3-mac1 (Severe acute respiratory syndrome coronavirus 2)

>  <Val>
-1.839

$$$$
>  <Substance Smiles>
O=C(NCC1(O)CCOCC1)c1cnn2ccc(C3CCN(C(=O)c4ccccc4)CC3)cc12

>  <System Tested>
SARS-CoV-2 nsp3-mac1 (Severe acute respiratory syndrome coronavirus 2)

>  <Val>
-3.965

$$$$
>  <Substance Smiles>
O=C(Nc1ccccc1)Nc1ccc(C(=O)Nc2cnnc(Cl)c2)cc1

>  <System Tested>
SARS-CoV-2 nsp3-mac1 (Severe acute respiratory syndrome coronavirus 2)

>  <Val>
-1.718

$$$$
>  <Substance Smiles>
CO[C@@H]1CCCN(C(=O)c2cnn3ccc(C4CCN(C(=O)c5ccccc5)CC4)cc23)C1

>  <System Tested>
SARS-CoV-2 nsp3-mac1 (Severe acute respiratory syndrome coronavirus 2)

>  <Val>
22.606

$$$$
>  <Substance Smiles>
Cc1cnc(C(=O)N(CCC(=O)N2CCNCC2)Cc2cccc(Cl)c2)nc1

>  <System Tested>
SARS-CoV-2 nsp3-mac1 (Severe acute respiratory syndrome coronavirus 2)

>  <Val>
-1.487

$$$$
>  <Substance Smiles>
O=C(Nc1ccccc1)Nc1ccc(C(=O)NCc2ccnc(F)c2)cc1

>  <System Tested>
SARS-CoV-2 nsp3-mac1 (Severe acute respiratory syndrome coronavirus 2)

>  <Val>
-0.36

$$$$
>  <Substance Smiles>
O=C(NCc1c[nH]nn1)c1cnn2ccc(C3CCN(C(=O)c4ccccc4)CC3)cc12

>  <System Tested>
SARS-CoV-2 nsp3-mac1 (Severe acute respiratory syndrome coronavirus 2)

>  <Val>
-2.856

$$$$
>  <Substance Smiles>
O=C(c1ncc[nH]1)N1CCC(c2ccn3ncc(C(=O)N4CCCCC4)c3c2)CC1

>  <System Tested>
SARS-CoV-2 nsp3-mac1 (Severe acute respiratory syndrome coronavirus 2)

>  <Val>
18.474

$$$$
>  <Substance Smiles>
O=C(Nc1ccccc1)Nc1ccc(C(=O)N2CCc3nc[nH]c3C2)cc1

>  <System Tested>
SARS-CoV-2 nsp3-mac1 (Severe acute respiratory syndrome coronavirus 2)

>  <Val>
-3.024

$$$$
>  <Substance Smiles>
O=C(CCN(Cc1cccc(Cl)c1)C(=O)c1cnon1)N1CCNCC1

>  <System Tested>
SARS-CoV-2 nsp3-mac1 (Severe acute respiratory syndrome coronavirus 2)

>  <Val>
-2.442

$$$$
